target: equine FcRn (large alpha subunit p51) / equine beta-2-microglobulin complex, biotinylated (equine) (UniProt P30441); assay: SPR (Biacore), pH 6
Metric name: pKd
pKd here is simply -log10 of the concentration when that concentration is written in mol/L.

[[record]]
binder = "equine IgG1 Q311N (antibody, part only; not given: Variable domains, not shown: another chain or arm of the molecule) constant: ASTTAPKVFALAPGCGTTSDSTVALGCLVSGYFPEPVKVSWNSGSLTSGVHTFPSVLQSSGFYSLSSMVTVPASTWTSETYICNVVHAASNFKVDKRIEPIPDNHQKVCDMSKCPKCPAPELLGGPSVFIFPPNPKDTLMITRTPEVTCVVVDVSQENPDVKFNWYMDGVEVRTATTRPKEEQFNSTYRVVSVLRIQHNDWLSGKEFKCKVNNQALPQPIERTITKTKGRSQEPQVYVLAPHPDELSKSKVSVTCLVKDFYPPEINIEWQSNGQPELETKYSTTQAQQDSDGSYFLYSKLSVDRNRWQQGTTFTCGVMHEALHNHYTQKNVSKNPGK"
measurement = 7.61


Now take the following binder into account.
pKd recorded for this binder, equine IgG1 D312L (antibody, part only; not given: variable domains, not shown: another chain or arm of the molecule) constant: ASTTAPKVFALAPGCGTTSDSTVALGCLVSGYFPEPVKVSWNSGSLTSGVHTFPSVLQSSGFYSLSSMVTVPASTWTSETYICNVVHAASNFKVDKRIEPIPDNHQKVCDMSKCPKCPAPELLGGPSVFIFPPNPKDTLMITRTPEVTCVVVDVSQENPDVKFNWYMDGVEVRTATTRPKEEQFNSTYRVVSVLRIQHQLWLSGKEFKCKVNNQALPQPIERTITKTKGRSQEPQVYVLAPHPDELSKSKVSVTCLVKDFYPPEINIEWQSNGQPELETKYSTTQAQQDSDGSYFLYSKLSVDRNRWQQGTTFTCGVMHEALHNHYTQKNVSKNPGK , is 7.61
